All values here come from paper PMC10682503.

Biological target: Ku-XLF interaction (Homo sapiens, UniProt P12956+P13010)
Construct: The full-length human Ku heterodimer subunits (Ku70 1–609, Ku80 1–732); 10x His-tag with TEV site (N); made in house; host or cells: Sf21 insect cells (Ku)
Sequence (P12956 whole entry): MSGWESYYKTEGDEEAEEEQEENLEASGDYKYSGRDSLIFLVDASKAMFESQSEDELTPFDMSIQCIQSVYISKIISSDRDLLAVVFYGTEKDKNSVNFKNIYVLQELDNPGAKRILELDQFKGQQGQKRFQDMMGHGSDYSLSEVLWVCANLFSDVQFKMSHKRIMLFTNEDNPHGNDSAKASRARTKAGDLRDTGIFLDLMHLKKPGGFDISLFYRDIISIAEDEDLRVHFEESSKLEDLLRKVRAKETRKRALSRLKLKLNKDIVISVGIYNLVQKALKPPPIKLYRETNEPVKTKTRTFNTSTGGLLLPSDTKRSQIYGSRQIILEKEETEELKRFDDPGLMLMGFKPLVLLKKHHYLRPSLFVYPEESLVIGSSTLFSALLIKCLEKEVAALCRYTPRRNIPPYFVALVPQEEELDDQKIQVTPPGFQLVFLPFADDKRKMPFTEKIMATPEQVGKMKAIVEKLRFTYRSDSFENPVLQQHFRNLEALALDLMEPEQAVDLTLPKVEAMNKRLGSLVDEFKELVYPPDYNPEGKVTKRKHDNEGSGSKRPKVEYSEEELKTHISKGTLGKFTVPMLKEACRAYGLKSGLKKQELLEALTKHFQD
Sequence (P13010 whole entry): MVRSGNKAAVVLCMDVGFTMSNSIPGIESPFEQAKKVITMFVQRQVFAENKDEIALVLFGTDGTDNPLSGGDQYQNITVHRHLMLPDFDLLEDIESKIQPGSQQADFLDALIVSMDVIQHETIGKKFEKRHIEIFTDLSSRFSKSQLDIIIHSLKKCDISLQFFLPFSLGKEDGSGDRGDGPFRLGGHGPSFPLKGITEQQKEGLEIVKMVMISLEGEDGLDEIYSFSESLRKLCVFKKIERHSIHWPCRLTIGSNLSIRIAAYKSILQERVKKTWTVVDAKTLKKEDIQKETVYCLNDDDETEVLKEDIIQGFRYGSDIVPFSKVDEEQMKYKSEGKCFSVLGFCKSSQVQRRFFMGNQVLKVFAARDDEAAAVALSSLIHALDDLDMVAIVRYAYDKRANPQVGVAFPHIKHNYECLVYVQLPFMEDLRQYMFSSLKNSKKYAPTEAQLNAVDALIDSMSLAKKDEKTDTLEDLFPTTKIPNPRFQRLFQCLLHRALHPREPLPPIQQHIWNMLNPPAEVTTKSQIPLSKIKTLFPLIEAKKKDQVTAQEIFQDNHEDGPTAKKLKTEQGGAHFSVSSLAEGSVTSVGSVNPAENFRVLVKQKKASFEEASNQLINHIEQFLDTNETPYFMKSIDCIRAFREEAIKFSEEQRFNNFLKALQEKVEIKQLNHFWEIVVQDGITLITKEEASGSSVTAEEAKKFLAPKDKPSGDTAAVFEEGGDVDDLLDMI
Sequence (Q9H9Q4 whole entry partner): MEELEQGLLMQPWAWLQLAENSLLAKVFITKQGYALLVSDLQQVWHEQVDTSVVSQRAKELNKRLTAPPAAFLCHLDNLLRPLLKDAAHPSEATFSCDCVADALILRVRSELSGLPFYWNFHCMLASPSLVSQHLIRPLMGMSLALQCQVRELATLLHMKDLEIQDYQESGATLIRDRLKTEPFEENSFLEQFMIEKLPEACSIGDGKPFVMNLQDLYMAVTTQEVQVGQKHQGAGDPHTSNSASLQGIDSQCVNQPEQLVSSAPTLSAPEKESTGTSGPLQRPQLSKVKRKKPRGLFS
Assay: switchSENSE analysis of Ku-DNA interaction with XLF
Assay type: binding
Settings: IP6 20 μM, biphasic fit; without IP6 3.6 ± 0.6; read-out: KD1, apparent affinity between Ku and XLF
READOUT_LABEL: Kd
Could you give the number and then its unit, please?

Req: State its Kd on Ku-XLF interaction (Homo sapiens, UniProt P12956+P13010): O=P(O)(O)O[C@H]1[C@H](OP(=O)(O)O)[C@@H](OP(=O)(O)O)[C@H](OP(=O)(O)O)[C@@H](OP(=O)(O)O)[C@H]1OP(=O)(O)O [IP6, inositol hexaphosphate]
Resp: 1200 nM
